Tested on: RXF 393 renal
experiment notes: NCI-60 one-dose screen, 48 h (100 = growth as untreated, 0 = no growth, -100 = all killed)
assay setup: 10 µM unless noted
Compounds without any hit were thinned out: in the full panel of roughly 83,000, 20% have a hit.
So basically every entry gets a class from its growth, ranges being b0 (below -40%), b1 (-40% to below 50%), b2 (50% or more)

compound: O=C(/C=C/C12c3ccccc3C(c3ccccc31)C1C(=O)NC(=O)C12)c1ccc(Cl)cc1 (centres undefined)
assigned category: b0
--
compound: CC(C)OC(=O)OCOP(=O)(OCOC(=O)OC(C)C)C1CCCN(O)C1=O (centres undefined)
assigned category: b1
--
compound: C=C1C(=O)O[C@H]2[C@H]1CC/C(Cn1cc(CNCCc3c[nH]c4ccc(Cl)cc34)nn1)=C\CC[C@@]1(C)O[C@@H]21
assigned category: b1
--
compound: C[C@@H]1CC[C@@H]2[C@@H]1[C@H](OC(=O)/C=C/c1ccccc1)[C@]1(C3CCCCC3)C[C@@H](NC(=O)CO)[C@@]2(C)O1
assigned category: b2
--
compound: O=C1Nc2ccccc2/C1=N/N=C/c1c[nH]c2ccccc12
assigned category: b2
--
compound: O=C(CCl)N1c2cccc3cccc(c23)N(C(=O)CCl)C1c1cn(-c2ccccc2)nc1-c1cccc([N+](=O)[O-])c1
assigned category: b2
--
compound: CN1CCN(c2ccc(Nc3ncc(Cl)c(NC[C@@H]4CCCO4)n3)cc2)CC1
assigned category: b1
--
compound: N#C/C(=C\c1ccc2c(c1)OCO2)n1nnc2ccccc21
assigned category: b0
--
compound: Oc1[nH]c2ccccc2c1/C=c1/cc2c(c(-c3ccc(F)cc3)n1)=Nc1ccccc1-2
assigned category: b0

====

System: NCI-H322M lung
experiment notes: NCI-60 one-dose screen, 48 h
assay setup: 10 µM unless noted
Procedure: Growth inhibition of the NCI-H322M human Non-Small Cell Lung tumor cell line is measured as a screen for anti-cancer activity. Cells are grown in 96 well plates and exposed to the test compound for 48 hours. Compounds are tested at a single concentration, which is 10^-5 M for most compounds. The reported endpoint is percent growth (GI% or GIPRCNT), where numbers from 0 - 100% represent growth inhibition, and numbers from -100% - 0 represent cell death. […]
This is part of a sample that, as a whole, favours compounds with a hit. Of some 83,000 tested, about 20% had one in any assay. Activity calls are given as the source filed them. Rule for the calls: active = growth percent below 10; inactive = the rest.
Classes used: active, inactive

substance smiles: COc1cc2oc(-c3cccc(C(=O)Nc4ccc(C#N)cc4)c3)cc(=O)c2c(O)c1OC
assigned category: inactive
--
substance smiles: N#Cc1c(NC(=O)c2cccc(C(F)(F)F)c2)sc2c1CCC(=O)C2
assigned category: inactive
--
substance smiles: O=C1c2ccccc2C(=O)c2cc(Cn3cc[n+](Cc4ccc5ccccc5c4)c3)ccc21
assigned category: inactive
--
substance smiles: COc1cc2c(cc1OC)-c1ccc3cc4c(cc3c1N(CCN(C)C)C2)OCO4
assigned category: active
--
substance smiles: NC(=S)N/N=C/C(=O)O
assigned category: inactive

====

System: A549/ATCC NSCLC
experiment notes: NCI-60 one-dose screen, 48 h (100 = growth as untreated, 0 = no growth, -100 = all killed)
assay setup: 10 µM unless noted
The panel holds about 83,000 compounds, 20% with a hit somewhere; the sample as a whole holds those more often.
Reported values of growth for individual entries
recorded endpoint: growth (%)

molecule: O=C1c2ccccc2C(=O)c2cc(Cn3cc[n+](Cc4ccc5ccccc5c4)c3)ccc21
val: 110

molecule: Cc1cc(-c2ccc(N(C)C)cc2)c2sc(=O)[nH]c2n1
val: 66

molecule: CCOC(=O)c1nnn(-c2ccccc2)c1C1=CN(C)CCC1
val: 99.6

molecule: NS(=O)(=O)Oc1ccc(NC(=O)C23CC4CC(CC(C4)C2)C3)cc1Cl
val: 93.7

molecule: C=CC(=O)Nc1cccc(C)c1Nc1cc(-c2cccnc2Cc2c(C)c(OC)cc(OC)c2C)ncn1
val: 8.38

molecule: COc1cc(CNC(=O)/C=C/C=C/c2ccc3c(c2)OCO3)ccc1OCc1cn(-c2ccc(Cl)c(Cl)c2)nn1
val: 2.23

molecule: COc1cc2oc(-c3cccc(C(=O)Nc4ccc(C#N)cc4)c3)cc(=O)c2c(O)c1OC
val: 37.4

molecule: N=c1ccn2c(n1)OC1C(O)C(CO)OC12 (stereo unspecified)
val: 16.2

molecule: CCOC(=O)c1ccc(NC(=O)CCCN(CC)CC)cc1
val: 90.5

molecule: COc1cc2c(c(OC)c1OC)C(=O)/C(=C/c1cc(C)c(O)c(C)c1)S2
val: 44.4

molecule: O=C1Nc2ccccc2SC1c1ccccc1Cl (stereo unspecified)
val: 90
